RUN DESCRIPTION: 1-Octanol-buffer partition coefficient, log D of the compound at pH 7.4 by shake flask method
Type: physicochemical
Lab note: compare logD with 0.08, writing T if less and F if equal or more.

# count of solved cases: 2
>>> class_name("COC(=O)C[C@@H]1C[C@@]2(CO2)[C@H](O)[C@@H](/C=C/C(C)=C/C[C@@H]2O[C@H](C)[C@H](NC(=O)/C=C\\[C@H](C)OC(C)=O)C[C@@H]2C)O1")
"F"
>>> class_name("CCCNC(=O)C[C@@H]1C[C@@]2(CO2)C[C@@H](/C=C/C(C)=C/C[C@@H]2O[C@H](C)[C@H](NC(=O)/C=C\\[C@H](C)OC(C)=O)C[C@@H]2C)O1")
"F"

Asked: I'd appreciate it if you could check whether CCCNC(=O)C[C@@H]1C[C@@]2(CO2)[C@H](O)[C@@H](/C=C/C(C)=C/C[C@@H]2O[C@H](C)[C@H](NC(=O)/C=C\[C@H](C)OC(C)=O)C[C@@H]2C)O1 has logD smaller than 0.08.
Given back: F

Asked: Please let me know if CC(=O)O[C@@H](C)/C=C\C(=O)N[C@@H]1C[C@H](C)[C@H](C/C=C(C)/C=C/[C@@H]2C[C@]3(CO3)C[C@@H](CC(=O)O)O2)O[C@@H]1C shows logD below 0.08.
Given back: T

Asked: Determine whether this compound shows logD lower than 0.08 (ties excluded): CC(=O)O[C@@H](C)/C=C\C(=O)N[C@@H]1C[C@H](C)[C@H](C/C=C(C)/C=C/[C@H]2O[C@H](CC(=O)O)C[C@@]3(CO3)[C@@H]2O)O[C@@H]1C
Given back: T
